All values here come from the Human Domainome abundance scans (Beltran et al. 2025).

B1: Gamma-crystallin C, residues 91 to 170; numbered along this chain, P07315 (parent)
chain: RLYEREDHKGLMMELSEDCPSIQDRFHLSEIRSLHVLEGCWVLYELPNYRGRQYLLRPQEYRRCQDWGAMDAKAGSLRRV

Variants of: B1
Assay: abundance fitness (aPCA) (normalised: wild type 0, dead -1); higher = more abundant; growth selection in yeast, the domain comes from the species named
Settings: Homo sapiens
Entry flag: true if abundance fitness reaches -0.4; false if it does not.

Example entries begin here.
CHANGES: G68R
CLASS_NAME: false
--
CHANGES: R57T
CLASS_NAME: true
--
CHANGES: C64P
CLASS_NAME: true
--
CHANGES: Y61T
CLASS_NAME: false
--
CHANGES: R63Q
CLASS_NAME: true
--
CHANGES: R32S
CLASS_NAME: false
--
CHANGES: Q53D
CLASS_NAME: true
--
CHANGES: H27I
CLASS_NAME: false

Please check the record `R5V` and state if its abundance fitness is at or above -0.4.
false

// inclusive: abundance fitness at least -0.4? input: `G10N`
false

Determine whether this variant has abundance fitness no lower than -0.4: `E38I`
false

Threshold query (abundance fitness >= -0.4) on `G10H`
false

Kindly determine if abundance fitness recorded for `L28W` is above or exactly -0.4.
true

Confirm if abundance fitness reported for the variant `P47Y` is -0.4 or above.
false

Form field: abundance fitness at least -0.4? Entry: `S33L`
false

Hi team, for `Q65P` , is the recorded abundance fitness at or above -0.4?
false

Hi, just wondering whether `L37Y` shows abundance fitness of -0.4 or higher.
true

Does the variant `L43T` have recorded abundance fitness that is -0.4 or more?
false
